Molecular target: UGT1A1 (Homo sapiens, UniProt P22309)
Sequence (P22309 26-533): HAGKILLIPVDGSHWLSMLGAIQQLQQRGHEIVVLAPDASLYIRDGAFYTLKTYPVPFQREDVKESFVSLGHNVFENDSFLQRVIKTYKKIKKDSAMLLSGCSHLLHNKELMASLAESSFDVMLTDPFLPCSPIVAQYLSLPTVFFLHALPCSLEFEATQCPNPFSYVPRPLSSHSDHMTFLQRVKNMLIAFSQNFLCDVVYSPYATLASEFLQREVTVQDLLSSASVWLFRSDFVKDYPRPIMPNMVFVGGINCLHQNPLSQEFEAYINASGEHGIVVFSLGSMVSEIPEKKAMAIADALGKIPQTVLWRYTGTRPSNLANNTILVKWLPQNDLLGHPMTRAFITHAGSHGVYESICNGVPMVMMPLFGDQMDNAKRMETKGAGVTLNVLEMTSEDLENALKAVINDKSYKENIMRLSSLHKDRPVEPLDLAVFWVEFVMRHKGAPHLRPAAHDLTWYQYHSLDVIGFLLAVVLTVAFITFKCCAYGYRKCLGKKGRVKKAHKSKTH

molecule | IC50
C#C[C@]1(CO)O[C@@H](n2cnc3c(N)nc(F)nc32)C[C@@H]1O [Islatravir, 4′-Ethynyl-2-fluoro-2′-deoxyadenosine] | > 100 µM

---

Target: BCRP (Homo sapiens)
Test: Bidirectional transport across MDCKII and MDCKII-BCRP cell monolayers
Assay type: in vitro ADME
Design: expressed in transfected cells; host or cells: MDCKII
Details: dog, MDCK; MDCKII cells; read-out: apparent permeability coefficient (Papp)
reported metric: Papp at 3 h, 2 µM

smi | recorded measurement
C#C[C@]1(CO)O[C@@H](n2cnc3c(N)nc(F)nc32)C[C@@H]1O | 1.6 to 2.2 ×10⁻⁶ cm/s

---

Target: CYP3A4 (Homo sapiens, UniProt P08684)
Assay: Time-dependent CYP inhibition in pooled human liver microsomes
Conditions: time dependent, CYP3A4; read-out: Islatravir IC50
reported metric: IC50

smi | recorded measurement
C#C[C@]1(CO)O[C@@H](n2cnc3c(N)nc(F)nc32)C[C@@H]1O | > 50 µM

---

Molecular target: CYP2C19 (Homo sapiens)
Sequence (P33261 whole entry): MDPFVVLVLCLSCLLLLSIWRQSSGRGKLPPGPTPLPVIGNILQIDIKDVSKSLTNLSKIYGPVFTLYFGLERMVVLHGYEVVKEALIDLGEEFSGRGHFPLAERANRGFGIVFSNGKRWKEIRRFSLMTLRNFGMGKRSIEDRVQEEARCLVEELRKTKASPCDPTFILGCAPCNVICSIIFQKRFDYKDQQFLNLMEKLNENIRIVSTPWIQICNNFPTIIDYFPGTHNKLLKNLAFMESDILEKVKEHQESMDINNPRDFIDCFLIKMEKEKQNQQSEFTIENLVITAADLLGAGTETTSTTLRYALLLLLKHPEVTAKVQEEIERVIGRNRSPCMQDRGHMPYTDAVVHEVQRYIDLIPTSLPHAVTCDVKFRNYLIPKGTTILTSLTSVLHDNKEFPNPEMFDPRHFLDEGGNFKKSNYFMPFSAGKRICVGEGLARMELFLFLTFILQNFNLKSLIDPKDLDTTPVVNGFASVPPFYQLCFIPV
Test: Reversible CYP inhibition in pooled human liver microsomes
Assay type: in vitro ADME
Conditions: reversible, CYP2C19 S-mephenytoin 4′-hydroxylation; read-out: Islatravir IC50
pIC50: −log10 of the molar value.

smi | tested on | pIC50
C#C[C@]1(CO)O[C@@H](n2cnc3c(N)nc(F)nc32)C[C@@H]1O | CYP2C19 (Homo sapiens) | < 4.00

---

Molecular target: CYP2D6 (Homo sapiens, UniProt P10635)
Sequence (P10635 whole entry): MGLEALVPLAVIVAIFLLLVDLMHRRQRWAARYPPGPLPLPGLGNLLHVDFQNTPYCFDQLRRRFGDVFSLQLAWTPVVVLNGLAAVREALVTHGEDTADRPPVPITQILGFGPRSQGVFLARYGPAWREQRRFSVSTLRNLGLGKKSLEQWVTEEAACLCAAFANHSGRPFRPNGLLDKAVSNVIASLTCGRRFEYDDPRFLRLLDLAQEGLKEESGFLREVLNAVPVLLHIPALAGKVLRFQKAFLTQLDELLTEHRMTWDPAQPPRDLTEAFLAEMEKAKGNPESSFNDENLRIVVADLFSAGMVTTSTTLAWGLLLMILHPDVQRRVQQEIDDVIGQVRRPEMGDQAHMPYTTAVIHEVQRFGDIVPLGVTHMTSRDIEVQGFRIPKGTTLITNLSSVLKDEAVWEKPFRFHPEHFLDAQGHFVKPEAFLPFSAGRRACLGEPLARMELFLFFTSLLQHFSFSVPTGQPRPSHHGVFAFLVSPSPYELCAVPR
Assay: Reversible CYP inhibition in pooled human liver microsomes
Assay type: in vitro ADME
Details: reversible, CYP2D6 dextromethorphan O-demethylation; read-out: Islatravir IC50
pIC50: −log10 of the molar value.
reported metric: pIC50

molecule | recorded measurement
C#C[C@]1(CO)O[C@@H](n2cnc3c(N)nc(F)nc32)C[C@@H]1O [Islatravir, 4′-Ethynyl-2-fluoro-2′-deoxyadenosine] | < 4.00

---

Biological target: OAT1 (Homo sapiens)
Sequence (Q4U2R8 whole entry): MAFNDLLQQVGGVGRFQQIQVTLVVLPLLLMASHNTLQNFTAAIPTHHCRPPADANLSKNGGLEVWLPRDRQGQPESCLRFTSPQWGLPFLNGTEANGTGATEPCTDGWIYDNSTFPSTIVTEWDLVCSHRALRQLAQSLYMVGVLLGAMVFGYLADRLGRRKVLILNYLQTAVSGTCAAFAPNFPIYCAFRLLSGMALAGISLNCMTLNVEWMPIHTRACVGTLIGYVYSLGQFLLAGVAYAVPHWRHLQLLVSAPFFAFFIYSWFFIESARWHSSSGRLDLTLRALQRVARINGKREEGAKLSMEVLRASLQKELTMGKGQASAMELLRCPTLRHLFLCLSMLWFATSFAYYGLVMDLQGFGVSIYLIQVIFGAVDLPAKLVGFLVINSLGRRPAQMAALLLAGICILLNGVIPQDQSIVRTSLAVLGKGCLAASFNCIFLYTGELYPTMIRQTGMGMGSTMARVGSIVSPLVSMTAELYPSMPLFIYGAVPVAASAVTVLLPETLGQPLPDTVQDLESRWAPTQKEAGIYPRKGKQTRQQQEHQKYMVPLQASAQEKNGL
Test: Inhibition of transporter-mediated probe uptake in MDCKII-OAT1 cells
Conditions: OAT1-mediated cidofovir uptake; read-out: Islatravir IC50

smi | IC50
C#C[C@]1(CO)O[C@@H](n2cnc3c(N)nc(F)nc32)C[C@@H]1O | > 100 µM

---

Target: MRP3 (Homo sapiens, UniProt O15438)
Sequence (O15438 whole entry): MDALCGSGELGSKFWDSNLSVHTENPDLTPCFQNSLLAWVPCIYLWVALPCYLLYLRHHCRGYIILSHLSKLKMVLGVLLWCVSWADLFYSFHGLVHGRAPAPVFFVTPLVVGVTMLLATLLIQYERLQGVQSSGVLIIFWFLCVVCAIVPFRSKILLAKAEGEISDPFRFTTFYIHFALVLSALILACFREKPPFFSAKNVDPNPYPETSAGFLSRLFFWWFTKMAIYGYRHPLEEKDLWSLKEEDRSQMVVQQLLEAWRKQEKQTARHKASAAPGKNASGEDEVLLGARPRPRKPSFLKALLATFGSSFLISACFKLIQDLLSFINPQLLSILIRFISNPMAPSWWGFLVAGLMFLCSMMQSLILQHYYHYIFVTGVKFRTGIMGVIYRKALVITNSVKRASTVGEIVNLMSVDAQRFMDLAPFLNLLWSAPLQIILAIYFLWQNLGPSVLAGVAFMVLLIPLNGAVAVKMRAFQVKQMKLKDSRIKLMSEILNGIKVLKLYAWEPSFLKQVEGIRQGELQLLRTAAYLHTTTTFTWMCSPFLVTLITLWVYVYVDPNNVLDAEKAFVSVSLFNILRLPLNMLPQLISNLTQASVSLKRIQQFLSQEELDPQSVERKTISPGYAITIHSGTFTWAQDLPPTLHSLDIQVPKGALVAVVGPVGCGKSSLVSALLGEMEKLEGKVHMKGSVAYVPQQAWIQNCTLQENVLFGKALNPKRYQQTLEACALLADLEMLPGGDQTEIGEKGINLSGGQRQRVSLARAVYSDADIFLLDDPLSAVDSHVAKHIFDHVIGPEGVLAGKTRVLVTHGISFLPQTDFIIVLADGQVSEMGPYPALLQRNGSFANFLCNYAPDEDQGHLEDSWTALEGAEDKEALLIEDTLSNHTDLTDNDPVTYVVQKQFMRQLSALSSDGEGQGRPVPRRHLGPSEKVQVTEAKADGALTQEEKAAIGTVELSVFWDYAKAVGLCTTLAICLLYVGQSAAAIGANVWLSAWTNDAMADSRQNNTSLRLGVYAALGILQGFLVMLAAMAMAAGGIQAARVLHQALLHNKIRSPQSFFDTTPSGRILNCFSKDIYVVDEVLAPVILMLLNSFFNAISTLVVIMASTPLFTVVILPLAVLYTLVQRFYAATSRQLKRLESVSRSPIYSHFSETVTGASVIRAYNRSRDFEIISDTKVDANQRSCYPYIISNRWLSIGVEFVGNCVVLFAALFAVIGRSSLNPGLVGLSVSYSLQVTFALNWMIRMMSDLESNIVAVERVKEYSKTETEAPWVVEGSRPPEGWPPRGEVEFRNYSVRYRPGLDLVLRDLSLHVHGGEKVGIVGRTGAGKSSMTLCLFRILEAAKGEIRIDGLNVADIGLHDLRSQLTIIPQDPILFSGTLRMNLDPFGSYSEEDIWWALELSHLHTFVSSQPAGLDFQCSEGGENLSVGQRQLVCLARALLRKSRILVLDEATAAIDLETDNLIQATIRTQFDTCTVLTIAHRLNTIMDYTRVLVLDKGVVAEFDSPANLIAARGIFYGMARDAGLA
Test: Inhibition of ATP-dependent probe uptake in Sf9 membrane vesicles
Settings: MRP3-mediated ATP-dependent uptake of E217βG
pIC50: −log10 of the molar value.

smi | tested on | pIC50
C#C[C@]1(CO)O[C@@H](n2cnc3c(N)nc(F)nc32)C[C@@H]1O | MRP3 (Homo sapiens, UniProt O15438) | < 4.00

---

Target: UniProtKB Q9Y6L6
Test: Inhibition of transporter-mediated probe uptake in HEK293-OATP1B1 cells
Conditions: OATP1B1-mediated uptake of pitavastatin; read-out: Islatravir IC50

smi | tested on | IC50
C#C[C@]1(CO)O[C@@H](n2cnc3c(N)nc(F)nc32)C[C@@H]1O | UniProtKB Q9Y6L6 | > 300 µM

---

Biological target: MRP2 (Homo sapiens, UniProt Q92887)
Experiment: Inhibition of ATP-dependent probe uptake in Sf9 membrane vesicles
Details: MRP2-mediated ATP-dependent uptake of ethacrynic acid glutathione conjugate
reported metric: IC50

molecule | reported metric | recorded measurement
C#C[C@]1(CO)O[C@@H](n2cnc3c(N)nc(F)nc32)C[C@@H]1O [Islatravir, 4′-Ethynyl-2-fluoro-2′-deoxyadenosine] | IC50 | > 100 µM

---

Biological target: CYP2C8 (Homo sapiens, UniProt P10632)
Sequence (P10632 whole entry): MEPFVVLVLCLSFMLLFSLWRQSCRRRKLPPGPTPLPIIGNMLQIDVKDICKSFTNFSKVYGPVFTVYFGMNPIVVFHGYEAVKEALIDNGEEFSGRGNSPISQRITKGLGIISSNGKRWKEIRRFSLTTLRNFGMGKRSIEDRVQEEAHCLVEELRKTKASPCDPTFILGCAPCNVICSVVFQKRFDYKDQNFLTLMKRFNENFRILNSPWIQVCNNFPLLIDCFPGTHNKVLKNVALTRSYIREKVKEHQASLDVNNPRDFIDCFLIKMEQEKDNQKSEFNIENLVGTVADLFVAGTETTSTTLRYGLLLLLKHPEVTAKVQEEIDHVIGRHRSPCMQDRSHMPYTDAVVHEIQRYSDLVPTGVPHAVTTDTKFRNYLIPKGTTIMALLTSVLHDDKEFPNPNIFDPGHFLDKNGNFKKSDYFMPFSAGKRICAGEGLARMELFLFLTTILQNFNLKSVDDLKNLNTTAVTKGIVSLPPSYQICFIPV
Assay: Reversible CYP inhibition in pooled human liver microsomes
Format: in vitro ADME
Details: reversible, CYP2C8 amodiaquine N-deethylation; read-out: Islatravir IC50
reported metric: IC50

smi | recorded measurement
C#C[C@]1(CO)O[C@@H](n2cnc3c(N)nc(F)nc32)C[C@@H]1O | > 100 µM

---

Assay: Distribution between red blood cells and plasma in human blood
Type: in vitro ADME
Details: whole blood; human blood, 0.1 µM, ± standard error; read-out: mean blood:plasma concentration ratio

smi | blood plasma ratio at 60 min, 0.1 µM
C#C[C@]1(CO)O[C@@H](n2cnc3c(N)nc(F)nc32)C[C@@H]1O | 1.3

---

Target: UniProt:P33261
Assay: Time-dependent CYP inhibition in pooled human liver microsomes
Type: in vitro ADME
Conditions: time dependent, CYP2C19; read-out: Islatravir IC50
pIC50: −log10 of the molar value.

compound | tested on | pIC50
C#C[C@]1(CO)O[C@@H](n2cnc3c(N)nc(F)nc32)C[C@@H]1O [Islatravir, 4′-Ethynyl-2-fluoro-2′-deoxyadenosine] | UniProt:P33261 | < 4.30

---

Molecular target: BCRP (Homo sapiens, UniProt Q9UNQ0)
Sequence (Q9UNQ0 whole entry): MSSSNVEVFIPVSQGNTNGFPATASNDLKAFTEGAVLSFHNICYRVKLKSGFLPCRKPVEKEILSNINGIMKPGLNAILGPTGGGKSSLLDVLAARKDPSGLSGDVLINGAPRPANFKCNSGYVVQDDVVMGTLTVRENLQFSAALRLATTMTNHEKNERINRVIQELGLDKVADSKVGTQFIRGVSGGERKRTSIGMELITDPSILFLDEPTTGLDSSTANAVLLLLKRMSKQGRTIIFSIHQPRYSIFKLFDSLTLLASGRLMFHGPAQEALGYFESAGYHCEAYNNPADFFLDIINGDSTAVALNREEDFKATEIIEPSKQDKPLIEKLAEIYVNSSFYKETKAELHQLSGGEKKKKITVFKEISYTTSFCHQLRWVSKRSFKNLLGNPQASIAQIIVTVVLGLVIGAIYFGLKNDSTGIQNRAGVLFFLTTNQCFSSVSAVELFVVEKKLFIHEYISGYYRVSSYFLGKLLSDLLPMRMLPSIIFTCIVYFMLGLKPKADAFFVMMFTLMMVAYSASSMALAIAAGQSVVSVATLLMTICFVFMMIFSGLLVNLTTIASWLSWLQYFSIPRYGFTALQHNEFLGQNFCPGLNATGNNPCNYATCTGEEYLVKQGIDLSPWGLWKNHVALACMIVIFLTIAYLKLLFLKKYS
Test: Bidirectional transport across MDCKII and MDCKII-BCRP cell monolayers
Type: in vitro ADME
Design: expressed in transfected cells; host or cells: MDCKII
Details: human; positive control substrate 1 µM, BCRP-transfected monolayers, mean ± SEM

compound | efflux ratio
COc1cc2nc(N3CCN(C(=O)c4ccco4)CC3)nc(N)c2cc1OC [prazosin, reference compound] | 14.9
